// reported melting point for each item listed

Sample records with melting point:
- molecule: "Cc1ccc(C(=O)Nc2ccc(S(=O)(=O)N[C@H](Cc3ccccc3)C(=O)O)cc2)cc1"
  melting point: "242 to 244 °C"
- molecule: "CCC(C)[C@@H](NS(=O)(=O)c1ccc(-c2nnn(-c3ccc(OC)cc3)n2)cc1)C(=O)O (some centres unmarked) (hydrate or solvate)"
  melting point: "204 to 207 °C"
- molecule: "Cc1cccc2[nH]cc(CC(NS(=O)(=O)c3ccc(-c4nnn(-c5ccccc5)n4)cc3)C(=O)O)c12 (centres unmarked)"
  melting point: "145 to 148 °C"
- molecule: "CSc1ccc(C(=O)Nc2ccc(S(=O)(=O)N[C@@H](C(=O)O)C(C)C)cc2)cc1"
  melting point: "231 to 234 °C"
- molecule: "O=C(O)[C@@H](Cc1c[nH]c2ccccc12)NS(=O)(=O)c1ccc(-c2nnn(-c3ccc(Br)cc3)n2)cc1 (hydrate or solvate)"
  melting point: "205 to 207 °C"
- molecule: "COc1ccc(-n2nnc(-c3ccc(S(=O)(=O)N[C@H](Cc4ccccc4)C(=O)O)cc3)n2)cc1 (hydrate or solvate)"
  melting point: "214 to 216 °C"
- molecule: "COc1ccc(-n2nnc(-c3ccc(S(=O)(=O)N[C@H](Cc4c[nH]c5ccccc45)C(=O)O)cc3)n2)cc1"
  melting point: "195 to 196 °C"
- molecule: "CC(C)[C@@H](NS(=O)(=O)c1ccc(-c2nnn(-c3ccc(Cl)cc3)n2)cc1)C(=O)O"
  melting point: "223 to 225 °C"

Enquiry: So what does the record say about melting point for `CC(C)[C@H](C(=O)NO)N(Cc1ccccc1)S(=O)(=O)c1ccc(Oc2ccccc2)cc1` ?
Return: 148 to 150 °C
